The values you see were collected from the supplement of paper PMC10567573.

B1: CDC25A (parent)
chain: KPIVPTDGKRVIVVFHCEFSSERG

variants of: B1; experiment: protein stability index of a GFP-peptide fusion (GPS, HEK-293T) (PSI 1-6); higher = more stable; conditions: c terminus: a fixed tail appended;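 note: lentivirally expressed fusions sorted by FACS into six bins by GFP to DsRed ratio, PSI derived from sequencing read proportions per bin multiplied by bin number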
Parameter: protein stability index. Scope: all listed entries.

- CHAIN SEQUENCE: "KPIVPTDGKRVIVVFHCEFSTERG"
  protein stability index: 3.26
- CHAIN SEQUENCE: "KPIVVTDGKRVIVVFHCEFSSERG"
  protein stability index: 2.29
- CHAIN SEQUENCE: "KPIVPNDGKRVIVVFHCEFSSERG"
  protein stability index: 2.28
- CHAIN SEQUENCE: "KPIVPTDGKRVQVVFHCEFSSERG"
  protein stability index: 2
- CHAIN SEQUENCE: "KPIVPTDYKRVIVVFHCEFSSERG"
  protein stability index: 2.16
- CHAIN SEQUENCE: "KPIPPTDGKRVIVVFHCEFSSERG"
  protein stability index: 2.75
- CHAIN SEQUENCE: "KPIVPTDHKRVIVVFHCEFSSERG"
  protein stability index: 3.19
- CHAIN SEQUENCE: "KPNVPTDGKRVIVVFHCEFSSERG"
  protein stability index: 2.48
- CHAIN SEQUENCE: "KPIVPTDGKRVIVVFHCEFSMERG"
  protein stability index: 2.22
- CHAIN SEQUENCE: "KPIVPTDGKRVIVVFKCEFSSERG"
  protein stability index: 1.49
- CHAIN SEQUENCE: "KPIVPTDEKRVIVVFHCEFSSERG"
  protein stability index: 2.13
- CHAIN SEQUENCE: "KPIVPHDGKRVIVVFHCEFSSERG"
  protein stability index: 2.71
- CHAIN SEQUENCE: "KPIVPTDGKRVIVVFHCEFSSESG"
  protein stability index: 2.19
- CHAIN SEQUENCE: "KPIVPTDGKRVIVVFHCEFSSERE"
  protein stability index: 1.93
- CHAIN SEQUENCE: "EPIVPTDGKRVIVVFHCEFSSERG"
  protein stability index: 1.68
- CHAIN SEQUENCE: "KPIVPTAGKRVIVVFHCEFSSERG"
  protein stability index: 2.21
- CHAIN SEQUENCE: "KPIVPTDGKRVMVVFHCEFSSERG"
  protein stability index: 2.24
- CHAIN SEQUENCE: "KCIVPTDGKRVIVVFHCEFSSERG"
  protein stability index: 3.03
- CHAIN SEQUENCE: "KPIVPTPGKRVIVVFHCEFSSERG"
  protein stability index: 3.14
- CHAIN SEQUENCE: "KPIVPTDGKRVILVFHCEFSSERG"
  protein stability index: 2.97
- CHAIN SEQUENCE: "KPIVPTDGKRVIVVDHCEFSSERG"
  protein stability index: 4.34
- CHAIN SEQUENCE: "KPIVPTSGKRVIVVFHCEFSSERG"
  protein stability index: 1.84
